Target: Cytosolic endo-beta-N-acetylglucosaminidase (Homo sapiens)
Sequence (Q8NFI3 whole entry): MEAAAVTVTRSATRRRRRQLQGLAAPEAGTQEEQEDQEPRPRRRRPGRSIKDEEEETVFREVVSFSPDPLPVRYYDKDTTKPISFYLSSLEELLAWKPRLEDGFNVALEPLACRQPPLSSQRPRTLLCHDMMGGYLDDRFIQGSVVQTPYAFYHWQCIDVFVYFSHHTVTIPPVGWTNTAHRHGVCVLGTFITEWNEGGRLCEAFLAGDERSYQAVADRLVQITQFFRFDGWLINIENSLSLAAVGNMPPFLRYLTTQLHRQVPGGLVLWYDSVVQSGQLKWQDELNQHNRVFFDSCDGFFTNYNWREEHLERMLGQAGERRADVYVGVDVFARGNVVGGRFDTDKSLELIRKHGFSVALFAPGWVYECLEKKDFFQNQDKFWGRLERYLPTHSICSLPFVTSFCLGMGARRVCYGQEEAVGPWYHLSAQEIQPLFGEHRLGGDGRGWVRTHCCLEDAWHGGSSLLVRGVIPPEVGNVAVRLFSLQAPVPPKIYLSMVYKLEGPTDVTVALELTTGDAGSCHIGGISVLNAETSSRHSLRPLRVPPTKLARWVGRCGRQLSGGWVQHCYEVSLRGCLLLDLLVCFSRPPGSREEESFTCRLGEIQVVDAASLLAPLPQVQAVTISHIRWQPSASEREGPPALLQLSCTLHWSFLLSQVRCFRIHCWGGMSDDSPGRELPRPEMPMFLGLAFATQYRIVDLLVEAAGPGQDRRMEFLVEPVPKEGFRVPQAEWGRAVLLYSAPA
Assay: Inhibition of recombinant human C-MYC/DDK-tagged ENGase expressed in HEK293T cells using heat inactivated bovine ribonuclease B as substrate pretreated for 15 mins followed by substrate addition after 90 mins by SDS-PAGE analysis
endpoint: IC50 (µM)
Answers are plain numbers, in µM.

Some compounds with recorded IC50:
[
  {
    "compound": "COc1ccc2[nH]c([S+]([O-])Cc3ncc(C)c(OC)c3C)nc2c1 (stereo not given) [OMEPRAZOLE]",
    "IC50 [µM]": 25
  },
  {
    "compound": "COCCCOc1ccnc(C[S+]([O-])c2nc3ccccc3[nH]2)c1C (stereo not given) [RABEPRAZOLE]",
    "IC50 [µM]": 4.47
  },
  {
    "compound": "Cc1c(OCC(F)(F)F)ccnc1C[S+]([O-])c1nc2ccccc2[nH]1 (stereo not given) [LANSOPRAZOLE]",
    "IC50 [µM]": 24.4
  },
  {
    "compound": "Cc1c(OCC(F)(F)F)ccnc1C[S@@+]([O-])c1nc2ccccc2[nH]1 [DEXLANSOPRAZOLE]",
    "IC50 [µM]": 25
  }
]

Okay, next one:
Item under review: COc1ccc2[nH]c([S+]([O-])Cc3ncc(C)c(OC)c3C)nc2n1 (stereo not given) [TENATOPRAZOLE] . Reported IC50?
20
